These data points were gathered from patent US20230322785A1.

# assay.system: human A2A adenosine receptor (Homo sapiens)
# Construct: expressed in transfected cells; host or cells: HEK293 or CHO cells
# Sequence (P29274 whole entry): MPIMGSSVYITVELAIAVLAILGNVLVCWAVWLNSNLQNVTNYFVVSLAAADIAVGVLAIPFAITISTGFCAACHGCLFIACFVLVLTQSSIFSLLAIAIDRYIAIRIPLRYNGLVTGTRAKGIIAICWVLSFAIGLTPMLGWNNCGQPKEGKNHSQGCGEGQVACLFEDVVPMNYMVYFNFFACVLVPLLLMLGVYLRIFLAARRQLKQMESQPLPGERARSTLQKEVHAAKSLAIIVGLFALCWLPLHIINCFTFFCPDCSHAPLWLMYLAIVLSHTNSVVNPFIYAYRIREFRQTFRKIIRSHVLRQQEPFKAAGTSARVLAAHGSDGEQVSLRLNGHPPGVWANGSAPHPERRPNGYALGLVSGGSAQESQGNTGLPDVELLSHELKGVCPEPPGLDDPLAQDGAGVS
# procedure.details: A2A binding affinity, Method (B): scintillation proximity assay (SPA) with [3H]SCH58261
# test.parameters: membranes of HEK293 or CHO cells expressing the human receptor
# Excerpt: Method (A) describes the procedure used to measure A2A binding affinity using radioligand binding. Method (B) describes the procedure used to measure A2A binding affinity using SPA technology. The method used to measure A2B binding affinity is also described below. […] The A2B IC50 value measured using the A2B binding affinity assay is shown in the table next to the compound under the corresponding A2A value. […]
Kindly supply the reported pIC50 values for the records listed here.
A value of pIC50 is the negative decimal logarithm of a concentration given in moles per litre.

Ask: Find the recorded pIC50 belonging to COc1cccc2c1nc(N)n1nc(CN(Cc3ccc(C(F)(F)F)cc3)CC(C)C)nc21 [Example 15.4] and report it.
Reply: 8.38

Ask: Find the recorded pIC50 belonging to COc1cccc2c1nc(N)n1nc(CN(Cc3ccc(C(F)(F)F)cc3)S(C)(=O)=O)nc21 [Example 19.2] and report it.
Reply: 8.12

Ask: Find the recorded pIC50 belonging to COc1cccc2c1nc(N)n1nc(CNCC(F)(F)F)nc21 [Example 10.5] and report it.
Reply: 8.23

Ask: Find the recorded pIC50 belonging to COc1cccc2c1nc(N)n1nc(CN(CC3CC3)C3CN(C(=O)OC(C)(C)C)C3)nc21 [Example 16.12] and report it.
Reply: 8.24

###

# assay.system: human A2A adenosine receptor (Homo sapiens)
# Construct: expressed in transfected cells; host or cells: HEK293 or CHO cells
# procedure.details: A2A binding affinity, Method (B): scintillation proximity assay (SPA) with [3H]SCH58261
# test.parameters: membranes of HEK293 or CHO cells expressing the human receptor
Kindly supply the reported log10 IC50 values for the records listed here.
Values below are the log10 of the recorded IC50, with nM as the unit.

Ask: Param readout = log10 IC50; param system = human A2A adenosine receptor (Homo sapiens); param query = COc1cccc2c1nc(N)n1nc(CN(CC(F)F)CC3CC3)nc21 ; response: value
Reply: 0.40

Ask: Param readout = log10 IC50; param system = human A2A adenosine receptor (Homo sapiens); param query = COc1cccc2c1nc(N)n1nc(CN(Cc3cccnc3)CC3CC3)nc21 ; response: value
Reply: 0.72

Ask: Param readout = log10 IC50; param system = human A2A adenosine receptor (Homo sapiens); param query = COc1cccc2c1nc(N)n1nc(CCN(C)Cc3ccc(C(F)(F)F)cc3)nc21 ; response: value
Reply: 0.61

Ask: Param readout = log10 IC50; param system = human A2A adenosine receptor (Homo sapiens); param query = COc1cccc2c1nc(N)n1nc(CC(=O)NCc3ccc(OC(F)(F)F)cc3)nc21 ; response: value
Reply: 0.76

Ask: Param readout = log10 IC50; param system = human A2A adenosine receptor (Homo sapiens); param query = COc1cccc2c1nc(N)n1nc(CN(Cc3ccc(OC(F)(F)F)cc3)C(=O)NC(C)C)nc21 ; response: value
Reply: 1.35

Ask: Param readout = log10 IC50; param system = human A2A adenosine receptor (Homo sapiens); param query = COc1cccc2c1nc(N)n1nc(CN(CCC(C)C)Cc3ccc(C(F)(F)F)cc3)nc21 ; response: value
Reply: 2.00

Ask: Param readout = log10 IC50; param system = human A2A adenosine receptor (Homo sapiens); param query = C=CCN(Cc1ccc(C(F)(F)F)cc1)Cc1nc2c3cccc(OC)c3nc(N)n2n1 ; response: value
Reply: 1.05

Ask: Param readout = log10 IC50; param system = human A2A adenosine receptor (Homo sapiens); param query = COc1cccc2c1nc(N)n1nc(CNCc3ccc(C(F)(F)F)cc3)nc21 ; response: value
Reply: 0.95

###

# assay.system: human A2B adenosine receptor (Homo sapiens, UniProt P29275)
# Construct: purchased Perkin Elmer ES-013-C; host or cells: HEK293 cells
# Sequence (P29275 1-332): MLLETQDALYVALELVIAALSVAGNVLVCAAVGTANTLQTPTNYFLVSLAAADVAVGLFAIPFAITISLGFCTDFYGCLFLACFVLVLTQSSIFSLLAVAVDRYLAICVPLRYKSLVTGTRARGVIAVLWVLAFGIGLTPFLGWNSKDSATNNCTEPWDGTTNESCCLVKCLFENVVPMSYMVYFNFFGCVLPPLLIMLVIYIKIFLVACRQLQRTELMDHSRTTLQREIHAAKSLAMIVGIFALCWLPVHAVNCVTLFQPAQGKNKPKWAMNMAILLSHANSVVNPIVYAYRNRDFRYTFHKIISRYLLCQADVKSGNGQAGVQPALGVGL
# procedure.details: A2B binding affinity, radioligand filtration binding assay
# test.parameters: value given with mark (A); membranes of HEK293 cells expressing human A2B
pIC50: −log10 of the molar value.
Assign t to entries whose pIC50 meets or exceeds 8; assign f to the rest.

Ask: Is pIC50 for COc1cc(F)cc2c1nc(N)n1nc(CNCc3ccc(C(O)C(F)(F)F)cc3)nc21 (single isomer, unassigned) [Example 11.7A] at or above 8?
Reply: f

Ask: Is pIC50 for COc1cc(F)cc2c1nc(N)n1nc(CNCc3ccc(C(O)(C(F)F)C(F)F)cc3)nc21 [Example 11.6] at or above 8?
Reply: t

Ask: Is pIC50 for COc1cccc2c1nc(N)n1nc(CNS(=O)(=O)C3CC3)nc21 [Example 12.2] at or above 8?
Reply: f

Ask: Is pIC50 for COc1cc(F)cc2c1nc(N)n1nc(CNCc3ccc(C(O)(C(F)(F)F)C(F)(F)F)cc3)nc21 [Example 11.5] at or above 8?
Reply: t

Ask: Is pIC50 for COc1cc(F)cc2c1nc(N)n1nc(CNCc3ccc(C(C)(O)C(F)(F)F)cc3)nc21 (single isomer, unassigned) [Example 11.8B] at or above 8?
Reply: t

###

# assay.system: human A2A adenosine receptor (Homo sapiens)
# Construct: expressed in transfected cells; host or cells: HEK293 or CHO cells
# procedure.details: A2A binding affinity, Method (B): scintillation proximity assay (SPA) with [3H]SCH58261
# test.parameters: membranes of HEK293 or CHO cells expressing the human receptor
measured.attribute: IC50 (nM)
Give a bare numeral; the unit nM is implied.

Ask: Find the recorded IC50 belonging to COc1cccc2c1nc(N)n1nc(CNCC3(c4cccc(F)c4)CCOCC3)nc21 and report it.
Reply: 6.4

Ask: Find the recorded IC50 belonging to COc1cccc2c1nc(N)n1nc(CN(Cc3ccc(N4CCOCC4)nc3)CC3CC3)nc21 and report it.
Reply: 10.9

Ask: Find the recorded IC50 belonging to COc1cccc2c1nc(N)n1nc(CNC(=O)NCc3ccc(Cl)cc3)nc21 and report it.
Reply: 5.7

Ask: Find the recorded IC50 belonging to COc1cccc2c1nc(N)n1nc(CC(=O)NCc3ccc(C(F)(F)F)cc3)nc21 and report it.
Reply: 9.4

###

# assay.system: human A2A adenosine receptor (Homo sapiens)
# Construct: expressed in transfected cells; host or cells: HEK293 or CHO cells
# procedure.details: A2A binding affinity, Method (B): scintillation proximity assay (SPA) with [3H]SCH58261
# test.parameters: membranes of HEK293 or CHO cells expressing the human receptor
Kindly supply the reported IC50 values for the records listed here.
Give a bare numeral; the unit nM is implied.

Ask: Param readout = IC50; param system = human A2A adenosine receptor (Homo sapiens); param query = COc1cccc2c1nc(N)n1nc(CN[C@@H](C)c3ccc(C(F)(F)F)cc3)nc21 ; response: value
Reply: 7.2

Ask: Param readout = IC50; param system = human A2A adenosine receptor (Homo sapiens); param query = COc1cccc2c1nc(N)n1nc(CN(Cc3ccc(Br)cc3)CC3CC3)nc21 ; response: value
Reply: 3.2

Ask: Param readout = IC50; param system = human A2A adenosine receptor (Homo sapiens); param query = COc1cccc2c1nc(N)n1nc(CN(Cc3ccc(OC4CCCCC4)nc3)CC3CC3)nc21 ; response: value
Reply: 6.6

Ask: Param readout = IC50; param system = human A2A adenosine receptor (Homo sapiens); param query = COc1cccc(CN(Cc2nc3c4cccc(OC)c4nc(N)n3n2)CC2CC2)c1 ; response: value
Reply: 3.5

Ask: Param readout = IC50; param system = human A2A adenosine receptor (Homo sapiens); param query = CCCN(Cc1ccc(C(F)(F)F)cc1)Cc1nc2c3cccc(OC)c3nc(N)n2n1 ; response: value
Reply: 2.3

Ask: Param readout = IC50; param system = human A2A adenosine receptor (Homo sapiens); param query = COc1cccc2c1nc(N)n1nc(CC(=O)N[C@H]3CCOc4ccncc43)nc21 ; response: value
Reply: 111

Ask: Param readout = IC50; param system = human A2A adenosine receptor (Homo sapiens); param query = COCc1ccc(CNCc2nc3c4cccc(OC)c4nc(N)n3n2)cc1 ; response: value
Reply: 2.2

Ask: Param readout = IC50; param system = human A2A adenosine receptor (Homo sapiens); param query = COc1cccc2c1nc(N)n1nc(CN(Cc3ccc(OC(F)(F)F)cc3)CC3CCCCC3)nc21 ; response: value
Reply: 123

Ask: Param readout = IC50; param system = human A2A adenosine receptor (Homo sapiens); param query = COc1ccc(CCC(=O)NCc2nc3c4cccc(OC)c4nc(N)n3n2)cc1 ; response: value
Reply: 7.5

Ask: Param readout = IC50; param system = human A2A adenosine receptor (Homo sapiens); param query = COc1cccc2c1nc(N)n1nc(CN(Cc3ccccn3)CC3CC3)nc21 ; response: value
Reply: 12.8

Ask: Param readout = IC50; param system = human A2A adenosine receptor (Homo sapiens); param query = COc1cccc2c1nc(N)n1nc(CN(Cc3ccc(OC(F)(F)F)cc3)CC3CCCC3)nc21 ; response: value
Reply: 123

Ask: Param readout = IC50; param system = human A2A adenosine receptor (Homo sapiens); param query = COc1cccc2c1nc(N)n1nc(CCN[C@H](C)c3ccc(C(F)(F)F)cc3)nc21 ; response: value
Reply: 15.9

Ask: Param readout = IC50; param system = human A2A adenosine receptor (Homo sapiens); param query = COc1cccc2c1nc(N)n1nc(CCN[C@H](C)C(F)(F)F)nc21 ; response: value
Reply: 5.8

Ask: Param readout = IC50; param system = human A2A adenosine receptor (Homo sapiens); param query = COc1cccc2c1nc(N)n1nc(CN(Cc3ccc(OC(F)(F)F)cc3)CC3CC3)nc21 ; response: value
Reply: 3.9

Ask: Param readout = IC50; param system = human A2A adenosine receptor (Homo sapiens); param query = COc1cccc2c1nc(N)n1nc(CCCNCc3ccc(S(F)(F)(F)(F)F)cc3)nc21 ; response: value
Reply: 45.2

Ask: Param readout = IC50; param system = human A2A adenosine receptor (Homo sapiens); param query = COc1cccc2c1nc(N)n1nc(CN(Cc3cccc(Br)n3)CC3CC3)nc21 ; response: value
Reply: 14.6

Ask: Param readout = IC50; param system = human A2A adenosine receptor (Homo sapiens); param query = COc1cccc2c1nc(N)n1nc(CN(C)Cc3ccc(C(F)(F)F)cc3)nc21 ; response: value
Reply: 6.4
